Cited source for all entries: ChEMBL document CHEMBL1201862

# System: Hs-578T
# method: NCI tumour cell line growth inhibition, 48 h
Active and inactive are the calls of the source. Rule as the data show it: active = GI50 up to about 1.1 µM and inactive = higher.
recorded.endpoint: GI50

## Task If you can, please state the reported GI50 value of CCOC(=O)c1ccc(N(CCOS(C)(=O)=O)CCOS(C)(=O)=O)cc1 .
## Result 29.3 µM (inactive)

## Task If you can, please state the reported GI50 value of COC(=O)/C=C/CC(=O)NS(C)(=O)=O .
## Result > 10 µM (inactive)

## Task If you can, please state the reported GI50 value of Cc1ccc(N2CCc3c(C)c(C#N)c4nc5ccccc5n4c32)cc1 .
## Result 16 µM (inactive)

## Task If you can, please state the reported GI50 value of Cc1nc2c(ccc3[nH]c4ccccc4c32)s1 .
## Result 16.3 µM (inactive)

## Task If you can, please state the reported GI50 value of CC(C)(Cl)C(Br)CCC(C)(Cl)C(Br)CBr (configuration not stated) .
## Result 35.7 µM (inactive)

## Task If you can, please state the reported GI50 value of NNc1nnc(-c2nnc(NN)o2)o1 .
## Result > 10 µM (inactive)

## Task If you can, please state the reported GI50 value of CC(=O)/C(=C/NC(=S)Nc1ccccc1)C(=O)Nc1ccccc1C .
## Result > 100 µM (inactive)

## Task If you can, please state the reported GI50 value of O=C1NC(N2CCCC(CO)C2)=N/C1=C\c1cccs1 (configuration not stated) .
## Result > 100 µM (inactive)

## Task If you can, please state the reported GI50 value of CCCCCC(/C=N/NC(N)=S)C(O)(C(F)(F)F)C(F)(F)F (configuration not stated) .
## Result > 10 µM (inactive)

## Task If you can, please state the reported GI50 value of COC(=O)c1c(C)cccc1C1CN=NC12Cc1cccc(C)c1C2=O (configuration not stated) .
## Result > 100 µM (inactive)

## Task If you can, please state the reported GI50 value of Oc1ccc2c(c1)OCC(O)(c1ccccc1O)C2 (configuration not stated) .
## Result 97.5 µM (inactive)

## Task If you can, please state the reported GI50 value of CCc1cccc2c3c([nH]c12)-c1ccccc1NC(=O)C3 .
## Result 30.7 µM (inactive)

====

Would you kindly list GI50 for each of these compounds?
# Tested on: K562
# method: NCI tumour cell line growth inhibition, 48 h
Activity calls are given as the source filed them. Rule as the data show it: active = GI50 up to about 1.1 µM and inactive = higher.

## Task If you can, please state the reported GI50 value of Cc1ccccc1C(=O)c1cc(O)ccc1O .
## Result 35 µM (inactive)

## Task If you can, please state the reported GI50 value of CCCCN(C)/N=N/c1[nH]cnc1C(N)=O .
## Result > 80.7 µM (inactive)

## Task If you can, please state the reported GI50 value of COc1cc(S(=O)(=O)Nc2ccc(-c3csc(N4C(=O)C(C)SC4c4ccccc4O)n3)cc2)ccc1Cl (stereo unspecified) .
## Result 32.8 µM (inactive)

## Task If you can, please state the reported GI50 value of COc1ccc(C2(O)C(S(=O)(=O)c3ccc(C)cc3)=Cc3ccc(OC)cc32)cc1 (stereo unspecified) .
## Result > 100 µM (inactive)

## Task If you can, please state the reported GI50 value of O=C(O)c1ccccc1C1c2ccccc2Oc2ccccc21 .
## Result 75.2 µM (inactive)

## Task If you can, please state the reported GI50 value of COC(=O)c1ccccc1C1CN=NC12Cc1c(ccc3c1CCC3)C2=O (stereo unspecified) .
## Result 39.1 µM (inactive)

====

# Test system: HOP-92
# method: NCI tumour cell line growth inhibition, 48 h
Activity calls are given as the source filed them. Rule as the data show it: active = GI50 up to about 1.1 µM and inactive = higher.
recorded.endpoint: GI50

## Task If you can, please state the reported GI50 value of CC(=O)OCCOCNC(=S)N/N=C/c1ccc([N+](=O)[O-])s1 .
## Result > 100 µM (inactive)

## Task If you can, please state the reported GI50 value of Sc1ncc2[nH]nnc2n1 .
## Result > 100 µM (inactive)

## Task If you can, please state the reported GI50 value of CN1CCN(CCCNN)CC1 .
## Result > 100 µM (inactive)

## Task If you can, please state the reported GI50 value of C=C(C)[C@@]1(O)O[C@H]2C[C@@]3(C)OC(=CC3=O)/C(C)=C\[C@@H]3OC(=O)[C@@]1(C)[C@H]32 .
## Result 20.4 µM (inactive)

## Task If you can, please state the reported GI50 value of C[C@]12CC/C(=N\O)C=C1CC[C@@H]1[C@@H]2CC[C@]2(C)C(=N/O)/C(=C/c3ccncc3)C[C@@H]12 .
## Result 30.5 µM (inactive)

## Task If you can, please state the reported GI50 value of CC(C)=CCc1cc(C2COc3cc4c(c(O)c3C2=O)C=CC(C)(C)O4)c(O)cc1O (stereo not drawn) .
## Result 16.7 µM (inactive)

## Task If you can, please state the reported GI50 value of C/C=C/C(=O)[C@@H](O)C(C)C .
## Result > 100 µM (inactive)

## Task If you can, please state the reported GI50 value of Nc1nc(Cl)cc(NCCC2(CO)CCC2)n1 .
## Result 93.3 µM (inactive)

## Task If you can, please state the reported GI50 value of O=c1[nH]c(=O)n(C2C(CO)OC(CO)C2O)cc1F (stereo not drawn) .
## Result > 100 µM (inactive)

## Task If you can, please state the reported GI50 value of CN(C)CCCNc1ncnc2[nH]cnc12 .
## Result 38.1 µM (inactive)

## Task If you can, please state the reported GI50 value of COc1cc(C(=O)c2cocc2C(=O)c2ccc3c(c2)OCO3)cc(OC)c1OC .
## Result 2.69 µM (inactive)

## Task If you can, please state the reported GI50 value of COc1ccc(C2COc3cc(OC(C)=O)c(OC(C)=O)cc3C2)cc1 (stereo not drawn) .
## Result 9.08 µM (inactive)

## Task If you can, please state the reported GI50 value of c1ccc2c(c1)SCCCSCCCS2 .
## Result 60.1 µM (inactive)

## Task If you can, please state the reported GI50 value of Cc1ccc(C)c(N2C(=O)C(=O)C(c3nc4ccccc4s3)/C(=N/N)C2=O)c1 (stereo not drawn) .
## Result > 100 µM (inactive)

## Task If you can, please state the reported GI50 value of O=C1CSC(c2ccc(Cl)cc2)N1c1ccc(-c2ccc(-n3c(-c4ccccc4)nc4ccccc4c3=O)cc2)cc1 (stereo not drawn) .
## Result 11.4 µM (inactive)

## Task If you can, please state the reported GI50 value of COC/C=C\[C@@]1(O)CCCC[C@@H]1CC(OC)OC .
## Result > 100 µM (inactive)

## Task If you can, please state the reported GI50 value of O=C(O)CCNc1[nH]cnc2ncnc1-2 .
## Result > 100 µM (inactive)

## Task If you can, please state the reported GI50 value of CCc1cccc2c3c([nH]c12)-c1ccccc1NC(=O)C3 .
## Result > 100 µM (inactive)

## Task If you can, please state the reported GI50 value of C/C(=N\NC(N)=S)c1ccc(/C(C)=N/NC(N)=S)cc1 .
## Result > 100 µM (inactive)

## Task If you can, please state the reported GI50 value of CC1=CC2C(C=C1)S(=O)(=O)N1CC21c1ccccc1 (stereo not drawn) .
## Result 15.1 µM (inactive)

## Task If you can, please state the reported GI50 value of CCOc1ccc(/C=C2\NC(=S)N(/C=C3\C(=O)Oc4ccccc4C3=O)C2=O)cc1 .
## Result 22.8 µM (inactive)

## Task If you can, please state the reported GI50 value of Nc1nn2c(C(Br)Br)cc(C(Br)Br)nc2c1[N+](=O)[O-] .
## Result 1.17 µM (inactive)

## Task If you can, please state the reported GI50 value of CC(=O)/C(=C/NC(=S)Nc1ccccc1)C(=O)Nc1ccccc1C .
## Result 99.1 µM (inactive)

## Task If you can, please state the reported GI50 value of Cc1ccc(S(=O)(=O)N2CCN(CCN(C)CCN3CCN(S(=O)(=O)c4ccc(C)cc4)CC3)CC2)cc1 .
## Result 17.7 µM (inactive)

## Task If you can, please state the reported GI50 value of C=C1C(=O)OC2/C=C(\COC(C)=O)CCC(OC(C)=O)C3=CC(OC3=O)C12 (stereo not drawn) .
## Result 3.49 µM (inactive)

## Task If you can, please state the reported GI50 value of COC12OCCN(C)C1=CC(=O)C1N=NCC12 (stereo not drawn) .
## Result > 100 µM (inactive)

## Task If you can, please state the reported GI50 value of CCOC(=O)C1=C(O)C(=O)c2ccccc2C1=O .
## Result > 100 µM (inactive)

## Task If you can, please state the reported GI50 value of NC(=O)C(=CNC(=S)Nc1cccc(C(F)(F)F)c1)C(N)=O .
## Result > 100 µM (inactive)

## Task If you can, please state the reported GI50 value of COP(=O)(/C=C/C(NC(=O)C(Cl)(Cl)Cl)c1ccccc1)OC (stereo not drawn) .
## Result > 100 µM (inactive)

## Task If you can, please state the reported GI50 value of CC1C(c2ccccc2)O[B-](F)(c2ccccc2)[NH+]1C (stereo not drawn) .
## Result > 100 µM (inactive)

## Task If you can, please state the reported GI50 value of CC(=O)[C@H]1[C@@H](OCc2ccccc2)O[N+]([O-])=C(C)[C@@H]1c1ccccc1 .
## Result 24.8 µM (inactive)

## Task If you can, please state the reported GI50 value of CN(N=O)C(=O)NC(CCCCNC(=O)OCc1ccccc1)C(=O)OCc1ccccc1 (stereo not drawn) .
## Result 18.5 µM (inactive)

## Task If you can, please state the reported GI50 value of O=C1/C(=C/c2ccc(O)cc2)CCc2ccc([N+](=O)[O-])cc21 .
## Result 29.1 µM (inactive)

## Task If you can, please state the reported GI50 value of O=C(C/N=C(\CN(c1ccccc1)c1ccccc1)Oc1c([N+](=O)[O-])cc([N+](=O)[O-])cc1[N+](=O)[O-])N1CCNCC1 .
## Result 67.5 µM (inactive)

## Task If you can, please state the reported GI50 value of COc1cc(/C=C(\C#N)C(N)=C(C#N)C#N)cc(O)c1O .
## Result > 68.4 µM (inactive)

## Task If you can, please state the reported GI50 value of Nc1ncc2c(n1)-c1ccccc1OC2NC1CC1 (stereo not drawn) .
## Result > 100 µM (inactive)

## Task If you can, please state the reported GI50 value of CC(C)=CC(=O)c1[nH]c2ccccc2c1CC(=O)NCCc1c[nH]cn1 .
## Result > 100 µM (inactive)

## Task If you can, please state the reported GI50 value of CC1=Nc2c(O)nc(S)nc2NC(c2ccc(Cl)c(Cl)c2)C1 (stereo not drawn) .
## Result > 93.1 µM (inactive)

## Task If you can, please state the reported GI50 value of N=C(N)NCCCC(NC(=O)OCCCCCn1ccc(N)nc1=O)C(=O)O (stereo not drawn) .
## Result > 100 µM (inactive)

## Task If you can, please state the reported GI50 value of CC(=O)N1C(Nc2ccccc2)CCN1c1ccccc1 (stereo not drawn) .
## Result > 10 µM (inactive)

## Task If you can, please state the reported GI50 value of COc1ccc(C(O)c2cc(OC)c(OC)c(OC)c2)cc1 (stereo not drawn) .
## Result 27.3 µM (inactive)

## Task If you can, please state the reported GI50 value of CSc1nc(NC2CCCC2)c2cc[nH]c2n1 .
## Result 30.1 µM (inactive)

## Task If you can, please state the reported GI50 value of O=C(C#Cc1ccccc1)N1c2ccccc2CC1c1c[nH]c2ccccc12 (stereo not drawn) .
## Result 15.3 µM (inactive)
